# TARGET DESC: T1, human CD20 on Raji B lymphoma cells (human, UniProt P11836 1-297)
# T1 construct: whole, on cells; also called hCD20
# T1 sequence (looked up): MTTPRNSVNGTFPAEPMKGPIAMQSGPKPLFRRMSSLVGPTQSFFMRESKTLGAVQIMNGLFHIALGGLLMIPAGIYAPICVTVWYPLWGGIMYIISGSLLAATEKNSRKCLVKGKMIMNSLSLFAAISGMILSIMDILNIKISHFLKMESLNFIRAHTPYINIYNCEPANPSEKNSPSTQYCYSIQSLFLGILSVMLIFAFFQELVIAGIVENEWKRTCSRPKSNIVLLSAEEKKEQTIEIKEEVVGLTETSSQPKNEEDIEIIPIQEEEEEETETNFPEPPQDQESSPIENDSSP
# METHOD NOTES: flow cytometry on Raji cells, indirect immunofluorescence (Atto 488-labeled anti-human Fc secondary Ab), median fluorescence intensity
Reported MFI at 16.7 µg/mL values for the following binders.
Just the number.

Check out these entries, answers already filled in.
BINDER: Rituximab (antibody, V domains shown) VH: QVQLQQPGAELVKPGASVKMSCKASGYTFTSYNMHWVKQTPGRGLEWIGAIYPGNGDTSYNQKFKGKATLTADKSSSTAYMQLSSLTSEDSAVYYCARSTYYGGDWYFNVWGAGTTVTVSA VL: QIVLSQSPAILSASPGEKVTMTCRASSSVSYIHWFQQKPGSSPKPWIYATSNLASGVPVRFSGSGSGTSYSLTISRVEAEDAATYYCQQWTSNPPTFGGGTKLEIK
MFI at 16.7 µg/mL: 14000

BINDER: ACR8 (chicken-derived anti-hCD20 mAb, chicken-human chimeric) (antibody, human IgG1, V domains shown, Atto 488 NHS-ester label on lysines in the direct immunofluorescence and mCD20 assays (positions not defined), Chicken VH fused to human CH1 and CH2-CH3 of human IgG1; chicken VL fused to human kappa constant domain; made in Expi293F cells; also called chACR8) VH: AVTLDESGGGLQTPGGALSLVCKASGFSFDRHGMFWVRQAPGKGLEWVAGIRSTGSYPKYGPAVKGRATISRDNGQSTVRLQLNNLRAEDTARYFCVRNVYIGDYDGDSIDAWGHGTEVIVSS VL: ALTQPSSVSANLGGTVEITCSGSSSGYGSYYGWYQQKSPGSAPVTVIYENTNRPSNIPSRFSGSESGSTATLTITGVQAEDEAVYFCGSADDSGNSAIFGAGTTLTVL
MFI at 16.7 µg/mL: 21000

BINDER: ACR7 (chicken-derived anti-hCD20 mAb, chicken-human chimeric) (antibody, human IgG1, V domains shown, Atto 488 NHS-ester label on lysines in the direct immunofluorescence and mCD20 assays (positions not defined), Chicken VH fused to human CH1 and CH2-CH3 of human IgG1; chicken VL fused to human kappa constant domain; made in Expi293F cells; also called chACR7) VH: AVTLDESGGGLQTPGGALSLVCKASGFTFNSNGMGWVRQAPGKGLEWVAGIHSSGRYTYYGTAVKGRATISRDNGQSTVRLQLNDLRAEDTATYYCAKNADSAYGYWYAGSIDAWGHGTEVIVSS VL: ALTQPSSVSANLGGTVEITCSGGYSSYGYSWHQQKSPASAPVTLIYNNNNRPSDIPSRFSGSASGSTATLTITGVQAEDEAVYYCAFTDYSSLAGVFGAGTTLTVL
MFI at 16.7 µg/mL: 18000

Moving on to the next binder.
QUERY: Fill in: MFI at 16.7 µg/mL of AC1 (chicken-derived anti-hCD20 mAb, chicken-human chimeric) (antibody, human IgG1, V domains shown, Atto 488 NHS-ester label on lysines in the direct immunofluorescence and mCD20 assays (positions not defined), Chicken VH fused to human CH1 and CH2-CH3 of human IgG1; chicken VL fused to human kappa constant domain; made in Expi293F cells; also called chAC1) VH: AVTLDESGGGLQTPGGGLSLVCKASGFDFSSYAMVWVRQAPGKGLEYVGEITNYAAGSGTWYGAAVKGRATISRDNGQSTVRLQLNNLRAEDTATYYCAKGPISGSIGYLSSIDAWGHGTEVIVSS VL: ALTQPSSVSANPGETVKITCSGGSSRYGYGWYQQKSPGSAPVTVIYWNDKRPSDIPSRFSGSKSGSTGTLTITGVRAEDEAVYYCGNYDNNDPAFGAGTTLTVL is ___
RESULT: 20000
